src = patent US9649309B2

- system-tested: Tyro3 (Homo sapiens (Human))
- test-method-notes: biochemical
pIC50: −log10 of the molar value.
metric: pIC50

INSERT INTO results (compound, quantitative_readout) VALUES
  ('CCCCNc1ncc(-c2ccc(C#CCN3CCN(C)CC3)cn2)c(N[C@H]2CC[C@H](O)CC2)n1 [UNC2793A]', 7.22),
  ('CCCCNc1ncc(C(=O)NCCCN2CCOCC2)c(N[C@H]2CC[C@H](O)CC2)n1 [UNC1839A]', 5.97),
  ('CCCCNc1ncc(-c2cc(NC(C)(C)C)ncn2)c(N[C@H]2CC[C@H](O)CC2)n1 [UNC3200A]', 6.59),
  ('CCCCNc1ncc(-c2cc(N3CCN(C)CC3)ncn2)c(N[C@H]2CC[C@H](O)CC2)n1 [UNC3197A]', 5.93),
  ('CCCCNc1ncc(C(=O)NCC2CCN(C)CC2)c(N[C@H]2CC[C@H](O)CC2)n1 [UNC2742A]', 6.61),
  ('CCCCNc1ncc(C(=O)NCc2ccc(CN3CCOCC3)cc2)c(N[C@H]2CC[C@H](O)CC2)n1 [UNC2735A]', 6.84),
  ('CCCCNc1ncc(-c2ccc(CNCc3ccncc3)cn2)c(N[C@H]2CC[C@H](O)CC2)n1 [UNC2571A]', 7.74),
  ('CCCCNc1ncc(-c2ccc(CNCc3ccccc3)cn2)c(N[C@H]2CC[C@H](O)CC2)n1 [UNC2572A]', 7.37),
  ('CCCCNc1ncc(-c2ccc(CNCC3CC3)cn2)c(N[C@H]2CC[C@H](O)CC2)n1 [UNC2547A]', 7.96),
  ('CCCCNc1ncc(C(=O)NC2CC(C)(C)N(C)C(C)(C)C2)c(N[C@H]2CC[C@H](O)CC2)n1 [UNC2695A]', 7.12),
  ('CCCCCNc1cc(-c2cnc(NCCCC)nc2N[C@H]2CC[C@H](O)CC2)ncn1 [UNC3201A]', 6.71),
  ('CCCCNc1ncc(-c2ccc3ccccc3n2)c(N[C@H]2CC[C@H](O)CC2)n1 [UNC2860A]', 6.12),
  ('CCCCNc1ncc(-c2cc(N3CCOCC3)ncn2)c(N[C@H]2CC[C@H](O)CC2)n1 [UNC3196A]', 6.00),
  ('CCCCNc1ncc(-c2ncc(COCc3ccccc3)s2)c(N[C@H]2CC[C@H](O)CC2)n1 [UNC2863A]', 5.92),
  ('CCCCNc1ncc(-c2cnccn2)c(N[C@H]2CC[C@H](O)CC2)n1 [UNC2794A]', 6.80);

* * *

- system-tested: Tyro3 (Homo sapiens (Human), UniProt Q06418)
- Sequence (Q06418 41-890 limits assumed): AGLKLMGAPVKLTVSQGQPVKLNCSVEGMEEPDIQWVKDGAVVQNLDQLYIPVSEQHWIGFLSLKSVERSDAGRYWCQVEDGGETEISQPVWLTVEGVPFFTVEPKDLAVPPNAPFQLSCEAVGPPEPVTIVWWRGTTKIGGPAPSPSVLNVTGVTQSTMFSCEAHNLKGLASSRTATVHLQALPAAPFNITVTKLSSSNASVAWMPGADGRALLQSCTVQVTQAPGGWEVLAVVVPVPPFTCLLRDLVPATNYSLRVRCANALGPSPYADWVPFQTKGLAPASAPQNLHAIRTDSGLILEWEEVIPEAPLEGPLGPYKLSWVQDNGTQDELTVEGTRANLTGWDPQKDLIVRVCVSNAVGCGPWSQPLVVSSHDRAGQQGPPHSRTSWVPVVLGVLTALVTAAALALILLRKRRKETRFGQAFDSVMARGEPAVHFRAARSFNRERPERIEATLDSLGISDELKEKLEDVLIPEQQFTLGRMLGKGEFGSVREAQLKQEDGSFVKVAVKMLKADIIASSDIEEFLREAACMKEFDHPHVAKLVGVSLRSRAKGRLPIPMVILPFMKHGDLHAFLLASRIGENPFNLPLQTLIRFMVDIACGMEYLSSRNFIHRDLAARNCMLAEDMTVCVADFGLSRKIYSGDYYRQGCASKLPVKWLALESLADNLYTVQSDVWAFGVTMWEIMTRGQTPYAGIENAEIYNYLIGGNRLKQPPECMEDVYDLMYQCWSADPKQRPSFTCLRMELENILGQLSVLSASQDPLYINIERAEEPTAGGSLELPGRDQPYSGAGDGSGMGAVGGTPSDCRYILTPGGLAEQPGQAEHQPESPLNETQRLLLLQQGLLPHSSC
- experimental-parameters: read-out: IC50 Tyro3
pIC50: −log10 of the molar value.
Label rule, in plain words: pIC50 of 7 and up is true (1), under 7 is false (0).

INSERT INTO measurements (compound, class) VALUES
  ('CCCCNc1ncc(C(=O)NCc2ccc(-n3cccn3)cc2)c(N[C@H]2CC[C@H](O)CC2)n1 [UNC2744A]', 'false (0)'),
  ('CCCCNc1ncc(C(=O)NCc2ccc(-n3cnc(-c4ccccc4)c3)cc2)c(N[C@H]2CC[C@H](O)CC2)n1 [UNC2969A]', 'false (0)'),
  ('OCCCCNc1ncc(-c2nccs2)c(N[C@H]2CC[C@H](O)CC2)n1 [UNC3146A]', 'false (0)'),
  ('CCCCNc1ncc(-c2ccc(C3(N4CCOCC4)CC3)cn2)c(NC2CCC(O)CC2)n1 (centres unmarked) [UNC3664A]', 'true (1)'),
  ('CCCCNc1ncc(-c2ccc(CN3CCN[C@@H](C)C3)cn2)c(NC2CCC(O)CC2)n1 (some centres unmarked) [UNC4106A]', 'true (1)'),
  ('CCCCNc1ncc(-c2ccc(CN3C[C@@H]4C[C@H]3CN4)cn2)c(NC2CCC(O)CC2)n1 (some centres unmarked) [UNC4112A]', 'true (1)'),
  ('CCCCNc1ncc(-c2cc(NC(=O)c3ccc(F)cc3)ncn2)c(N[C@H]2CC[C@H](O)CC2)n1 [UNC3182A]', 'false (0)'),
  ('CCCCNc1ncc(-c2cnc(SC)cn2)c(N[C@H]2CC[C@H](O)CC2)n1 [UNC3074A]', 'false (0)'),
  ('CCCCNc1ncc(-c2ccc(C3=CCNCC3)cn2)c(N[C@H]2CC[C@H](O)CC2)n1 [UNC4354A]', 'true (1)'),
  ('CCCCNc1ncc(-c2ccc(C=O)o2)c(N[C@H]2CC[C@H](O)CC2)n1 [UNC2902A]', 'false (0)'),
  ('CCCCNc1ncc(C(=O)NCc2ccon2)c(N[C@H]2CC[C@H](O)CC2)n1 [UNC4290A]', 'false (0)'),
  ('CCCCNc1ncc(-c2ccc(N3CCCC3)nn2)c(N[C@H]2CC[C@H](O)CC2)n1 [UNC3044A]', 'false (0)'),
  ('CCCCNc1ncc(C(=O)NCc2ccc(-c3ccc4ccccc4c3)nc2)c(N[C@H]2CC[C@H](O)CC2)n1 [UNC4235A]', 'false (0)');
